Test system: NF-kappa B
Test: Evaluation of NF-kappa B inhibition (β-gal reporter, IL-1β-induced)
Assay type: cell-based
Settings: Homo sapiens; β-gal reporter with NF-kappa B binding motif in SV40 large T-immortalized HUVEC; induced with 1 ng/ml IL-1β; read-out: NF-kB inhibiting activity IC50
measuredQuantity: IC50

Task: Observed IC50 on NF-kappa B for CC1(C)CC1C(=O)Nc1ccc(C(=O)c2ccc(NC(=O)C3CC3(C)C)cc2)cc1 (stereo not drawn) , please.
Result: > 5 µg/mL

Task: What reported IC50 corresponds to CC1(C)CC1C(=O)Nc1ccc(S(=O)(=O)c2ccc(NC(=O)C3CC3(C)C)cc2)cc1 (stereo not drawn) on NF-kappa B?
Result: > 5 µg/mL

Task: Quick check: IC50 on NF-kappa B, item CC1(C)C[C@H]1C(=O)Nc1ccc(C(O)c2ccc(NC(=O)[C@@H]3CC3(C)C)cc2)cc1 ?
Result: > 5 µg/mL

====

Test system: NF-kappa B
Assay: Evaluation of NF-kappa B inhibition (β-gal reporter, IL-1β-induced)
Format: cell-based
Conditions: Homo sapiens; β-gal reporter with NF-kappa B binding motif in SV40 large T-immortalized HUVEC; induced with 1 ng/ml IL-1β; read-out: NF-kB inhibiting activity IC50
Provide the reported IC50 of each item.
Write the number in µg/mL without appending the unit.

Task: For NF-kappa B, provide IC50 of COc1ccc(CCCNc2ccc(Cc3ccc(NC(=O)C4CC4(C)C)cc3)cc2)cc1 (stereo not shown) please.
Result: 0.1

Task: Form: Entry = COc1ccc(CCCC(=O)Nc2ccc(Cc3ccc(NC(=O)C4CC4(C)C)cc3)cc2)cc1 (stereo not shown) | System = NF-kappa B | IC50 = ____
Result: 0.1

Task: Hello, I am looking for reported IC50 with NF-kappa B for COc1ccc(CC(=O)Nc2ccc(C(O)c3ccc(NC(=O)C4CC4(C)C)cc3)cc2)cc1 (stereo not shown) . Could you help?
Result: 0.9

Task: Form: Entry = CC1(C)CC1C(=O)Nc1ccc(Cc2ccc(NC(=O)C3CCCN3)cc2)cc1 (stereo not shown) | System = NF-kappa B | IC50 = ____
Result: 0.1

Task: # value lookup — system NF-kappa B, readout IC50, item CC1(C)CC1C(=O)Nc1ccc(CSc2ccc(NC(=O)C3CC3(C)C)cc2)cc1 (stereo not shown)
Result: 0.2
